Values were extracted from ChEMBL document CHEMBL1136156.

Test system: Escherichia coli
Assay: Antibacterial activity against Escherichia coli K-12 was determined
Type: functional
QUANTITY NAME: MIC

[[record]]
mol = "Cl.N=C(N)NCc1ccc(C(=O)Nc2ccccc2)cc1"
test_system = "Escherichia coli"
quantity_name = "MIC"
measured_result = "> 64 µg/mL"

[[record]]
mol = "NCc1ccc(C(=O)O)cc1"
test_system = "Escherichia coli"
quantity_name = "MIC"
measured_result = "> 64 µg/mL"

[[record]]
mol = "Cc1ccc(COC(=O)c2ccc(-c3ccc(OC(=O)c4ccc(CN=C(N)N)cc4)cc3)cc2)cc1.Cl"
test_system = "Escherichia coli"
quantity_name = "MIC"
measured_result = "> 64 µg/mL"

[[record]]
mol = "O=C(O)c1ccc(-c2ccc(O)cc2)cc1"
test_system = "Escherichia coli"
quantity_name = "MIC"
measured_result = "> 64 µg/mL"

[[record]]
mol = "COC(=O)c1ccc(-c2ccc(O)cc2)cc1"
test_system = "Escherichia coli"
quantity_name = "MIC"
measured_result = "> 64 µg/mL"

[[record]]
mol = "Cc1ccc(COC(=O)c2ccc(-c3ccc(O)cc3)cc2)cc1"
test_system = "Escherichia coli"
quantity_name = "MIC"
measured_result = "> 64 µg/mL"

[[record]]
mol = "Cc1ccc(CO)cc1"
test_system = "Escherichia coli"
quantity_name = "MIC"
measured_result = "> 64 µg/mL"

[[record]]
mol = "Cc1ncc([N+](=O)[O-])n1CCO"
test_system = "Escherichia coli"
quantity_name = "MIC"
measured_result = "> 100 µg/mL"

[[record]]
mol = "Cl.N=C(N)NCc1ccc(C(=O)O)cc1"
test_system = "Escherichia coli"
quantity_name = "MIC"
measured_result = "> 64 µg/mL"

[[record]]
mol = "Cl.N=C(N)NCc1ccc(C(=O)Oc2ccccc2)cc1"
test_system = "Escherichia coli"
quantity_name = "MIC"
measured_result = "> 64 µg/mL"

[[record]]
mol = "CC1(C)S[C@@H]2[C@H](NC(=O)[C@H](N)c3ccc(O)cc3)C(=O)N2[C@H]1C(=O)O"
test_system = "Escherichia coli"
quantity_name = "MIC"
measured_result = "1.6 µg/mL"

